List of pEC50 values.
- ASSAYED_TARGET: T1, human CD19 (human, UniProt P15391 20-556)
- T1 construct: whole, on cells; also called Cluster of Differentiation 19; hPro1
- T1 sequence (looked up): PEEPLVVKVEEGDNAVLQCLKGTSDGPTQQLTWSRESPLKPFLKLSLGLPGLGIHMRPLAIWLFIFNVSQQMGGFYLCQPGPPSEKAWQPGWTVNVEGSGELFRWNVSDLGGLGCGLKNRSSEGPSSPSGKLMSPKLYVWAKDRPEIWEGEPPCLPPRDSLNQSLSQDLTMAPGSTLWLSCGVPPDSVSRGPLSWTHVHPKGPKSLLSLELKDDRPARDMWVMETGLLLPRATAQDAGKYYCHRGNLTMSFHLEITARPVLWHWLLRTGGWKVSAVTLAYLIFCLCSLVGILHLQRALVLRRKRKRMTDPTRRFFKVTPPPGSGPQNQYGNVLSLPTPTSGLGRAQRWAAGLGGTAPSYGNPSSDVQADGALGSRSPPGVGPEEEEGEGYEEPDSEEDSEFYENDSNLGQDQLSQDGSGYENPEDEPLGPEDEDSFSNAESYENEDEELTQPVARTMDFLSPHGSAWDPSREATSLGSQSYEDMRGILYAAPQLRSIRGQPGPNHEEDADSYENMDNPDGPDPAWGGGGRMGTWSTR
- PROTOCOL_TEXT: flow cytometry on Ramos cells
pEC50: −log10 of the molar value.
ATTRIBUTE_MEASURED: pEC50

| BINDER | ATTRIBUTE_MEASURED | RECORDED_NUMBER |
| --- | --- | --- |
| WBP7011-4.15.10 (antibody, V domains shown, also called W7011-4.15.10) VH: EVQLQQSGPELVKPGASVKMSCKASGYTFTSYVMHWMKQKPGQGLEWIGYINPYNDGTEYHEKFKGKATLTSDKSSSTAYMELSSLTSEDSAVFYCARGPYYYGGSPFDFWGQGTTLTVSS VL: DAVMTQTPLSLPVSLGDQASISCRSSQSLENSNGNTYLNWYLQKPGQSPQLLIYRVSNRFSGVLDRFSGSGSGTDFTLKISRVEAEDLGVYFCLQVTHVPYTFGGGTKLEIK | pEC50 | 9.51 |
| WBP7011-4.100.1 (antibody, V domains shown, also called W7011-4.100.1) VH: EVQLQQSGPELVKPGASVKMSCKASGYTFTSYVIHWVKQKPGQGLEWIGYINPYNDGAEYTEKFKGKATLTSDKSSSTAYMELSSLTSEDSTVYYCARGPYYYGGSPFDYWGQGTTLTVSS VL: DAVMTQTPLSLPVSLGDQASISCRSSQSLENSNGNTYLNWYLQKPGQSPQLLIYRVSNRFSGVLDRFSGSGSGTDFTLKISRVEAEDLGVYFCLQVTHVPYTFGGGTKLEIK | pEC50 | 9.77 |
| WBP7011-4.87.6 (antibody, V domains shown) VH: QVQLQQSGAELVRPGSSVKISCKASGYAFSTYWMNWVKQRPGQGLEWIGQIYPGDDDTKYNGKFKGKASLTADKSSSTAYMQLISLTSEDSAVYFCARRYFRYDYWYSDVWGAGTTVTVTS VL: DIQMTQTTSSLSASLGDRVTISCRASQDISNYLNWYQQKPDGTVKLLIYYTSRLHSGVPARFSGSGSGTDYSLTISNLEQEDIATYFCHQGNTLPLTFGAGTKLELK | pEC50 | 10.00 |
